Please respond with reported IC50 for every item in the list.
Molecular target: Human PDE4B1 (Homo sapiens (Human), UniProt Q07343, S133E/S654A/S659A/S661A)
Sequence (Q07343 122-736 S133E/S654A/S659A/S661A): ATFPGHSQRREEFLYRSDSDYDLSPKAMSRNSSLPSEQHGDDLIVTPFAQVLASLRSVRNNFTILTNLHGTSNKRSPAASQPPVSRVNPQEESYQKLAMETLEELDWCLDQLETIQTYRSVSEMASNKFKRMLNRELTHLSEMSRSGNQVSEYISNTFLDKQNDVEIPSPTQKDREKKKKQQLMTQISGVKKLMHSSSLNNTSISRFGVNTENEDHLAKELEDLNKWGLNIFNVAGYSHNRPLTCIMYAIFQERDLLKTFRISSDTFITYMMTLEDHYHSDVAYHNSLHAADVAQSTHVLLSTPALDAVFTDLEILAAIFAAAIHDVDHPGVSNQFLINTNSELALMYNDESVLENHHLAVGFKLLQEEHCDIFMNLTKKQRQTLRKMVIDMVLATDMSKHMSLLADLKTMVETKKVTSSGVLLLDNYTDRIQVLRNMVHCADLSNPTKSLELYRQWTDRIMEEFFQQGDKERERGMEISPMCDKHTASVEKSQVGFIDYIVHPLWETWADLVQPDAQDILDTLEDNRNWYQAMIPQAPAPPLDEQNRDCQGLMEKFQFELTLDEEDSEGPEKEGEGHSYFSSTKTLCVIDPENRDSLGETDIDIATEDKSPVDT
Assay: PDE4B1 Scintillation Proximity Assay (SPA), inhibition of enzyme activity
Type: biochemical
Settings: Table 10, geometric mean of 2-9 determinations unless otherwise indicated, read-out: Human PDE4B FL
Dear colleague, please return just the value in nM, with no unit written.

Recorded result, CS(=O)(=O)c1cccc(-c2c3n(c4cccnc24)CCN(C2CC2)C3=O)c1 [Example 94] , IC50: 467

Recorded result, COc1ncc(-c2c3n(c4nccnc24)CCN(C2CC2)C3=O)cn1 [Example 87] , IC50: 2640

Recorded result, Cn1cc(-c2c3n(c4cccnc24)CCN(C2CC2)C3=O)cn1 [Example 91] , IC50: 2760

----------
Please respond with reported pIC50 for every item in the list.
Target: Human PDE4C1 (Homo sapiens (Human), UniProt Q08493)
Sequence (Q08493 2-712): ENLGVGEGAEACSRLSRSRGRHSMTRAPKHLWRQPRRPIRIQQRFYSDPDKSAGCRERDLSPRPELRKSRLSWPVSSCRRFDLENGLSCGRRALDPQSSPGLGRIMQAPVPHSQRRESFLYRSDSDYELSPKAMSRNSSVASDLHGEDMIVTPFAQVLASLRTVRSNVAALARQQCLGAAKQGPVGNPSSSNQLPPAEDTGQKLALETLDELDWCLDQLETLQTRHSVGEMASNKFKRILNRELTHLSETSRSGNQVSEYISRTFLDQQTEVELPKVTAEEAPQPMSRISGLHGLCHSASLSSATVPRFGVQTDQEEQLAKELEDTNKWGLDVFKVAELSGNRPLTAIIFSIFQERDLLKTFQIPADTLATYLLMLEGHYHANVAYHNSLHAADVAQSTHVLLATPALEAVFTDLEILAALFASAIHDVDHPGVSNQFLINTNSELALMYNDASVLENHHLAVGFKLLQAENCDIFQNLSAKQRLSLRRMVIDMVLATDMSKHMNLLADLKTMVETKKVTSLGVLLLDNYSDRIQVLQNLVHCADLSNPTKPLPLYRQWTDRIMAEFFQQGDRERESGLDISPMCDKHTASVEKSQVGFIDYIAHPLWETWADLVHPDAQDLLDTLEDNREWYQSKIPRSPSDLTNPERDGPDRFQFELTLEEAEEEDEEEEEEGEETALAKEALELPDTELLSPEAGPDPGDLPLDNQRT
Test: PDE4C1 Scintillation Proximity Assay (SPA), inhibition of enzyme activity
Type: biochemical
Conditions: Table 9, geometric mean of 2-9 determinations unless otherwise indicated, read-out: Human PDE4C FL
In simple prose, pIC50 is minus the logarithm base ten of a concentration in moles per litre.

Recorded result, N#Cc1ccc(-c2c3n(c4cccnc24)CCN(C2CC2)C3=O)c(F)c1 , pIC50: 7.69

Recorded result, O=C1c2c(-c3ccc(Cl)cc3)c3nccnc3n2CCN1C1CC1 , pIC50: 7.61

Recorded result, O=C1c2c(-c3ccc(Cl)cc3)c3ncccc3n2CC2CCN12 (single isomer, unassigned) [Example 69] , pIC50: 7.61

Recorded result, Cc1ncc(-c2c3n(c4cccnc24)CCN(C2CC2)C3=O)cn1 , pIC50: 6.88

Recorded result, O=C1c2c(-c3ccc(Cl)cc3)c3cccnc3n2CCN1C1CC1 , pIC50: 6.90

Recorded result, Cc1cc(C#N)c(F)cc1-c1c2c(n3c1C(=O)N(C1CC1)CC3)CCCO2 , pIC50: 7.82

Recorded result, COc1ccc(-c2c3n(c4cccnc24)CCN(C2CC2)C3=O)cc1 , pIC50: 7.07

Recorded result, Cc1cc(F)ccc1-c1c2n(c3cccnc13)CCN(C1CC1)C2=O , pIC50: 8.03

Recorded result, O=C1c2c(-c3ccc(F)cc3F)c3ncccc3n2CCN1C1CC1 , pIC50: 7.68

----------
Biological target: human PDE4D3 (Homo sapiens (Human), UniProt Q08499)
Sequence (Q08499 186-808): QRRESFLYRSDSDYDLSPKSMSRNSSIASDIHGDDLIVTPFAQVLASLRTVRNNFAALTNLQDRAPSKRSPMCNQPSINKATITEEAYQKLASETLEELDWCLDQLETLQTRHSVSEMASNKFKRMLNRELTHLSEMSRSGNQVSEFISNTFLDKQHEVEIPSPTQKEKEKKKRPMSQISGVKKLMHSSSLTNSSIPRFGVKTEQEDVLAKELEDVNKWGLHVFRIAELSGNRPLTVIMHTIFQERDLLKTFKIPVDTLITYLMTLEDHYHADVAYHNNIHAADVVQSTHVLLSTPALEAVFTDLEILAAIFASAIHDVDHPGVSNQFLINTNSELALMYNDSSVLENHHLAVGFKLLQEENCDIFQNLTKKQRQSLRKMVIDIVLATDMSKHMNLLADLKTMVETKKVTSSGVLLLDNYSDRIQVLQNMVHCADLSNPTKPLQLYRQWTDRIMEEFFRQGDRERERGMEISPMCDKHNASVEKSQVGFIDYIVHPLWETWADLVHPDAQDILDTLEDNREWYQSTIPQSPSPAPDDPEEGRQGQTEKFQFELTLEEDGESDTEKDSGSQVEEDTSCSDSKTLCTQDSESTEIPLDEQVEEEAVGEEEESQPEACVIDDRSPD
Test: PDE4D3 Scintillation Proximity Assay (SPA), inhibition of enzyme activity
Format: biochemical
Settings: Table 9, geometric mean of 2-9 determinations unless otherwise indicated, read-out: Human PDE4D FL
Experimental: The PDE4A, PDE4B, PDE4C and PDE4D binding affinity for the compounds of the present invention was determined utilizing the following biological assay(s): A portion of the human PDE4D3 coding sequence (amino acids 50 to 672 from the sequence with accession number Q08499-2) was cloned into the baculovirus expression vector pFastBac (Invitrogen) engineered to include a C-terminal His6 affinity tag to aid in purification as described in Seeger, T. F. et al., Brain Research 985 (2003) 113-126. […]
PROPERTY LABEL: pIC50
In simple prose, pIC50 is minus the logarithm base ten of a concentration in moles per litre.

Summary line: COc1ccc(-c2c3n(c4cccnc24)CCN(C2CC2)C3=O)c(F)c1 , human PDE4D3 (Homo sapiens (Human), UniProt Q08499), reported pIC50 = 5.42

Summary line: O=C1c2c(-c3ccc(Cl)cc3)c3ncccc3n2CC2CCN12 (single isomer, unassigned) [Example 68] , human PDE4D3 (Homo sapiens (Human), UniProt Q08499), reported pIC50 = 6.27

Summary line: N#Cc1ccc(-c2c3n(c4cccnc24)CCN(C2CC2)C3=O)cc1 , human PDE4D3 (Homo sapiens (Human), UniProt Q08499), reported pIC50 = 5.83

Summary line: COc1cc(-c2c3n(c4cccnc24)CCN(C2CC2)C3=O)c(F)cc1Cl , human PDE4D3 (Homo sapiens (Human), UniProt Q08499), reported pIC50 = 6.35

----------
Target: human PDE4D3 (Homo sapiens (Human))
Experiment: PDE4D3 Scintillation Proximity Assay (SPA), inhibition of enzyme activity
Format: biochemical
Details: Table 9, geometric mean of 2-9 determinations unless otherwise indicated, read-out: Human PDE4D FL
Description: The PDE4A, PDE4B, PDE4C and PDE4D binding affinity for the compounds of the present invention was determined utilizing the following biological assay(s): A portion of the human PDE4D3 coding sequence (amino acids 50 to 672 from the sequence with accession number Q08499-2) was cloned into the baculovirus expression vector pFastBac (Invitrogen) engineered to include a C-terminal His6 affinity tag to aid in purification as described in Seeger, T. F. et al., Brain Research 985 (2003) 113-126. […]
Kindly apply the following: condition met if IC50 is less than 200 nM, condition not met in every other case.

stdin: Hello, I'm reviewing records and need to know if IC50 of Cc1cc(C#N)c(F)cc1-c1c2c(n3c1C(=O)N(C1CC1)CC3)CCCO2 [Example 16] is below 200 nM. Could you check?
stdout: condition met

stdin: Hello, I'm reviewing records and need to know if IC50 of Cc1cc(C#N)c(F)cc1-c1c2n(c3scnc13)CCN(C1CC1)C2=O [Example 28] is below 200 nM. Could you check?
stdout: condition met

stdin: Hello, I'm reviewing records and need to know if IC50 of COc1ccc(-c2c3n(c4cccnc24)CCN(C2CC2)C3=O)cc1 [Example 44] is below 200 nM. Could you check?
stdout: condition not met

stdin: Hello, I'm reviewing records and need to know if IC50 of O=C1c2c(-c3ccc(Cl)cc3F)c3ncccc3n2CCN1C1CC1 [Example 47] is below 200 nM. Could you check?
stdout: condition met

stdin: Hello, I'm reviewing records and need to know if IC50 of Cc1ccc(-c2c3n(c4cccnc24)CCN(C2CC2)C3=O)c(C)c1 [Example 65] is below 200 nM. Could you check?
stdout: condition not met

----------
Molecular target: Human PDE4C1 (Homo sapiens (Human))
Assay: PDE4C1 Scintillation Proximity Assay (SPA), inhibition of enzyme activity
Format: biochemical
Conditions: Table 10, geometric mean of 2-9 determinations unless otherwise indicated, read-out: Human PDE4C FL
Please respond with reported pIC50 for every item in the list.
In simple prose, pIC50 is minus the logarithm base ten of a concentration in moles per litre.

Summary line: COCCCCCCN1CCn2c(c(-c3ccc(Cl)cc3)c3ncccc32)C1=O , Human PDE4C1 (Homo sapiens (Human)), reported pIC50 = 7.28

Summary line: CS(=O)(=O)c1cccc(-c2c3n(c4cccnc24)CCN(C2CC2)C3=O)c1 , Human PDE4C1 (Homo sapiens (Human)), reported pIC50 = 5.98

Summary line: Cn1cc(-c2c3n(c4cccnc24)CCN(C2CC2)C3=O)cn1 , Human PDE4C1 (Homo sapiens (Human)), reported pIC50 = 5.63

Summary line: CCNC(=O)N1CCn2c(c(-c3ccc(Cl)cc3)c3ncccc32)C1=O , Human PDE4C1 (Homo sapiens (Human)), reported pIC50 = 6.97

----------
Target: Human PDE4A3 (Homo sapiens (Human))
Sequence (P27815 other isoform, or with tags, fused parts or gaps): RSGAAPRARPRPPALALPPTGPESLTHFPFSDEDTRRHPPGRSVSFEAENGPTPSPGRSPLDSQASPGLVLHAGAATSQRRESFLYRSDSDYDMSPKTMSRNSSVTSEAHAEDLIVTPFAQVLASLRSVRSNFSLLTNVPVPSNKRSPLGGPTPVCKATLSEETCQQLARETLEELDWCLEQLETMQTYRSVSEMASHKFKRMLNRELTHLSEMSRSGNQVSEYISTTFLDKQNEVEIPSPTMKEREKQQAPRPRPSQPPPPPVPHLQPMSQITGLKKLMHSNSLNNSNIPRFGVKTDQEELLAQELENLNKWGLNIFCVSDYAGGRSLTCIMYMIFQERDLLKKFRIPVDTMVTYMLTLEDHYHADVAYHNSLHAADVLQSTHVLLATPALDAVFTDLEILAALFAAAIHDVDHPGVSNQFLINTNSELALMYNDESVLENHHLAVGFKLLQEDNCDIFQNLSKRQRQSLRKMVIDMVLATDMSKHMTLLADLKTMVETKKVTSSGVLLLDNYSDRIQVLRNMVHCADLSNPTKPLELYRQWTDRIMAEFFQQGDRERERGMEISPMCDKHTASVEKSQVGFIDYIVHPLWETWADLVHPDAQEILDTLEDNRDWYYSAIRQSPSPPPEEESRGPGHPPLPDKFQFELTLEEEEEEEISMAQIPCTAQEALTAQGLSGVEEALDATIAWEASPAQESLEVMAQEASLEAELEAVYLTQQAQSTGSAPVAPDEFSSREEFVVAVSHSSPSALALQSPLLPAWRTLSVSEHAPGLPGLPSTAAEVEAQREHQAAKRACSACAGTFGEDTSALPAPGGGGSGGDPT
Experiment: PDE4A3 Scintillation Proximity Assay (SPA), inhibition of enzyme activity
Format: biochemical
Conditions: Table 10, geometric mean of 2-9 determinations unless otherwise indicated, read-out: Human PDE4A FL
pIC50: −log10 of the molar value.
Kindly return satisfied if reported pIC50 is no lower than 6; return not satisfied if it is lower.

stdin: Decide: pIC50 of COCCCCCCN1CCn2c(c(-c3ccc(Cl)cc3)c3ncccc32)C1=O [Example 96] >= 6?
stdout: satisfied

stdin: Decide: pIC50 of CN(C)S(=O)(=O)c1cccc(-c2c3n(c4cccnc24)CCN(C2CC2)C3=O)c1 [Example 85] >= 6?
stdout: satisfied

stdin: Decide: pIC50 of Cc1cccnc1-c1c2n(c3cccnc13)CCN(C1CC1)C2=O [Example 84] >= 6?
stdout: not satisfied

stdin: Decide: pIC50 of Cn1ncc(Cl)c1-c1c2n(c3cccnc13)CCN(C1CC1)C2=O [Example 93] >= 6?
stdout: not satisfied

stdin: Decide: pIC50 of Cn1nc(-c2c3n(c4cccnc24)CCN(C2CC2)C3=O)nc1C(F)F [Example 90] >= 6?
stdout: not satisfied

stdin: Decide: pIC50 of Cc1nccc(-c2c3n(c4cccnc24)CCN(C2CC2)C3=O)n1 [Example 81] >= 6?
stdout: not satisfied

stdin: Decide: pIC50 of Cc1nc(-c2c3n(c4cccnc24)CCN(C2CC2)C3=O)cs1 [Example 88] >= 6?
stdout: not satisfied

stdin: Decide: pIC50 of O=C1c2c(C3CCCC3)c3ncccc3n2CCN1C1CC1 [Example 86] >= 6?
stdout: satisfied

stdin: Decide: pIC50 of CCCc1cnc(N2CCn3c(c(-c4ccc(Cl)cc4)c4ncccc43)C2=O)nc1 [Example 95] >= 6?
stdout: satisfied

stdin: Decide: pIC50 of CS(=O)(=O)N1CCn2c(c(-c3ccc(Cl)cc3)c3ncccc32)C1=O [Example 79] >= 6?
stdout: satisfied

stdin: Decide: pIC50 of Cc1csc(-c2c3n(c4cccnc24)CCN(C2CC2)C3=O)n1 [Example 82] >= 6?
stdout: not satisfied

stdin: Decide: pIC50 of CCNC(=O)N1CCn2c(c(-c3ccc(Cl)cc3)c3ncccc32)C1=O [Example 80] >= 6?
stdout: satisfied

stdin: Decide: pIC50 of CCCc1ccnc(N2CCn3c(c(-c4ccc(Cl)cc4)c4ncccc43)C2=O)n1 [Example 97] >= 6?
stdout: satisfied
